Target: HNF4alpha8 (COS-7 nuclear extract) (Homo sapiens, UniProt P41235-5 1-452)
Sequence: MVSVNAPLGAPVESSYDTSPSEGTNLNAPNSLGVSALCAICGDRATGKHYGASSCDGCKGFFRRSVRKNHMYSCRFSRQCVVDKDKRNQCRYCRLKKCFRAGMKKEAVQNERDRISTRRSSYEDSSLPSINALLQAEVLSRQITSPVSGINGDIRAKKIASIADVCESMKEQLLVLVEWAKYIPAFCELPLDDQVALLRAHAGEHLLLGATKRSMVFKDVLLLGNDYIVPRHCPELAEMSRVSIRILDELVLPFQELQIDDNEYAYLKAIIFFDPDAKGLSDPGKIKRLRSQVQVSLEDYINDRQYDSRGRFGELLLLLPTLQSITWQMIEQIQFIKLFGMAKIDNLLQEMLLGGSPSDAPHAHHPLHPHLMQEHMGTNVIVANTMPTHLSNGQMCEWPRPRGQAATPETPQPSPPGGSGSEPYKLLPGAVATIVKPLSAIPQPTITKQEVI
Assay: protein-binding microarray; COS-7 nuclear extract on double-stranded Agilent 4x180k PBM; binding buffer, salt, pH and temperature not given in the material; high values mean tight binding
Details: chain copies: 2; label: 3' end of strand 1 on the slide; dsDNA, one strand shown
In all, about 18,000 sequences were measured (“log2 normalized intensity”: median about 0.36, highest 2% from about 7.3 on). The full list was thinned out, with the highest values kept by preference.
binding signal for assorted sequences
Your answer is read as log2 normalized intensity, so omit the unit and give the number.

The following sequences have reported results that may help.
| seq | target_entity | binding signal (log2 normalized intensity) |
| --- | --- | --- |
| CCTGATGACAACTGAATGTGACCTTTTGGAGCCTAGGGAGATTAGAGTATCGGTCGA | HNF4alpha8 (COS-7 nuclear extract) (Homo sapiens, UniProt P41235-5 1-452) | 6.26 |
| GACTGTCTTAGGAAAGAACAGGTCAAAGGTGCCTAGGGAGATTAGAGTATCGGTCGA | HNF4alpha8 (COS-7 nuclear extract) (Homo sapiens, UniProt P41235-5 1-452) | 5.06 |
| ACAGCACTGACCTTTGAGAGTCAACACTGAGCCTAGGGAGATTAGAGTATCGGTCGA | HNF4alpha8 (COS-7 nuclear extract) (Homo sapiens, UniProt P41235-5 1-452) | 3.53 |
| CTGACAAGTATCTCGGTCAAACCTTTGACCGCCTAGGGAGATTAGAGTATCGGTCGA | HNF4alpha8 (COS-7 nuclear extract) (Homo sapiens, UniProt P41235-5 1-452) | 6.35 |
| CTGTGGTCATTAATTAACTTGTGTTCAGAGGCCTAGGGAGATTAGAGTATCGGTCGA | HNF4alpha8 (COS-7 nuclear extract) (Homo sapiens, UniProt P41235-5 1-452) | 1.07 |
| AACCCCTTTTCAATTCCTTATCTCGTTCTGGCCTAGGGAGATTAGAGTATCGGTCGA | HNF4alpha8 (COS-7 nuclear extract) (Homo sapiens, UniProt P41235-5 1-452) | 0.721 |

For record ACTTTGACCTTGGCACTGAAGAATGTCTAAGCCTAGGGAGATTAGAGTATCGGTCGA the listed binding signal is 2.09

// recorded binding signal for GCAGAGCAGTTTAGAGAAAGGGTCAAAGGTGCCTAGGGAGATTAGAGTATCGGTCGA : 6.23

# credit: paper PMC10726135
